# protocol details: AUC (0 to t) in male Sprague-Dawley rat at 1 mg/kg, iv measured up to 24 hrs by LC-MS/MS analysis
# Type: ADME, organism-based
# particulars: in vivo
test readout: AUC(0-t) at 24 h

- Cl.O=S(=O)(c1ccccc1)n1ncc2cc(-n3cc(CN[C@@H]4C[C@H]4c4ccc(F)c(F)c4)nn3)ccc21: 481 ng·h/mL

###

# study target: Amine oxidase [flavin-containing] B (Homo sapiens)
# Sequence (P27338 whole entry): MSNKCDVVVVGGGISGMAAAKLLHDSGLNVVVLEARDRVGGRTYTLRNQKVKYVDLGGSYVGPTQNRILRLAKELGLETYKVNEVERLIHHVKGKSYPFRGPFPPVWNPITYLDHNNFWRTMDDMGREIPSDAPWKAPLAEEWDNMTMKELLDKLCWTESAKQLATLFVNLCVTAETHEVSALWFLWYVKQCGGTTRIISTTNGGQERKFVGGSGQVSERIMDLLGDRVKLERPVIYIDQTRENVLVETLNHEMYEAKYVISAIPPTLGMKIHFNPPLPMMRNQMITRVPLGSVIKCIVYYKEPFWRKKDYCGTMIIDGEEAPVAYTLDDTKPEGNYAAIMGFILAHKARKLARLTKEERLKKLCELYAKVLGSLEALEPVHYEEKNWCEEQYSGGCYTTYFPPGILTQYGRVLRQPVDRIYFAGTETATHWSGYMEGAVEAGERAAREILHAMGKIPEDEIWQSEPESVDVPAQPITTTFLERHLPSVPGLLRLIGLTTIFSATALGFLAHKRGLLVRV
# protocol details: Inhibition of human N-terminal Flag-tagged MAOB extracted baculovirus infected in Sf9 cells measured after 0.5 hrs by MAO-Glo Assay
test readout: IC50 (nM)

• Cl.O=S(=O)(c1ccccc1)n1ncc2cc(-n3cc(CN[C@@H]4C[C@H]4c4ccc(F)c(F)c4)nn3)ccc21 = 2650

Sourced from ChEMBL document CHEMBL6134819
